All figures here come from patent US10517889B2.

% inhibition of SMAD7 mRNA expression by entry:
- System: human SMAD7 mRNA
- procedure summary: Dose-dependent inhibition of human SMAD7 mRNA expression in Hep3B cells (Example 3, Study 1 and 2)
- Assay type: cell-based
- condition parameters: 20000.0 nM, electroporation, approximately 16 hours, Study 2
Strand notation (5' to 3'): a small letter for the sugar, then the base; units joined by * are phosphorothioate-linked, units joined directly phosphodiester-linked; [ ] holds rarer units or linkages, { } end groups; capitals alone tell only the bases. k = constrained ethyl (cEt); [5mC] = 5-methylcytosine; d = 2'-deoxy (DNA)
Please reply with the bare figure in % and do not write the unit itself.

>  <substance>
798662 (kG*k[5mC]*kT*d[5mC]*d[5mC]*dG*dG*d[5mC]*dT*dG*d[5mC]*d[5mC]*d[5mC]*k[5mC]*kA*k[5mC]; antisense) [compound 798662]

>  <% inhibition of SMAD7 mRNA expression, %>
25

$$$$
>  <substance>
799471 (antisense k[5mC]*kA*k[5mC]*dA*dG*dA*dA*dA*dA*dG*d[5mC]*dT*d[5mC]*k[5mC]*kG*k[5mC]) [compound 799471]

>  <% inhibition of SMAD7 mRNA expression, %>
46

$$$$

Could you now look at the following substance, please?
Measured % inhibition of SMAD7 mRNA expression, 799734 (antisense kT*k[5mC]*k[5mC]*d[5mC]*dA*dG*dG*dT*dG*dA*dA*d[5mC]*d[5mC]*k[5mC]*kA*k[5mC]) [compound 799734] : 67

* * *

- System: human SMAD7 mRNA
- procedure summary: Antisense inhibition of human SMAD7 mRNA expression in Hep3B cells by 3-10-3 cEt gapmers, 10,000 nM, electroporation (Example 2)
- Type: cell-based
- condition parameters: Hep3B cells, electroporation with 10,000 nM antisense oligonucleotide, approximately 24 hours, RTS5062, percent inhibition of SMAD7 mRNA relative to untreated control cells
Strand notation (5' to 3'): a small letter for the sugar, then the base; units joined by * are phosphorothioate-linked, units joined directly phosphodiester-linked; [ ] holds rarer units or linkages, { } end groups; capitals alone tell only the bases. k = constrained ethyl (cEt); [5mC] = 5-methylcytosine; d = 2'-deoxy (DNA)
Entries and their % Inhibition values follow.
Kindly provide the numeric value in % only, without the unit symbol.

>  <substance>
799806 (antisense kG*kA*kG*dG*dA*dG*d[5mC]*dG*dA*dG*dA*dA*dG*kA*kG*kT) [compound 799806]

>  <meas value>
6

$$$$
>  <substance>
799551 (kT*kT*kA*d[5mC]*dA*dG*d[5mC]*dT*d[5mC]*d[5mC]*dT*dA*d[5mC]*kT*kG*kT; antisense) [compound 799551]

>  <meas value>
12

$$$$
>  <substance>
799766 (kA*kA*kA*d[5mC]*dA*dA*dA*dG*d[5mC]*dA*d[5mC]*dG*d[5mC]*kT*kA*kA; antisense) [compound 799766]

>  <meas value>
35

$$$$
>  <substance>
799606 (kT*kT*kT*dA*d[5mC]*dA*dA*dA*dA*d[5mC]*dT*d[5mC]*dT*k[5mC]*kT*kG; antisense) [compound 799606]

>  <meas value>
50

$$$$

Briefly, % Inhibition measured for 799629 (kT*kA*k[5mC]*dA*d[5mC]*dA*d[5mC]*dA*d[5mC]*dA*dA*dG*d[5mC]*kT*kT*kG; antisense) [compound 799629] : 24

Value of % Inhibition reported for the substance 772842 (kG*kT*kT*dA*dA*dT*dA*dA*dT*dA*dT*d[5mC]*dT*kT*k[5mC]*k[5mC]; antisense) [compound 772842] is 79

% Inhibition reading for 799317 (antisense kT*kA*kA*dA*dA*dA*d[5mC]*dA*d[5mC]*d[5mC]*dA*dA*dG*kA*kT*k[5mC]) [compound 799317] : 0

Recorded result, 799624 (kT*kG*kA*dA*dA*dG*dT*dA*d[5mC]*dA*dA*dT*d[5mC]*kT*k[5mC]*k[5mC]; antisense) [compound 799624] , % Inhibition: 58

Consider 799845 (antisense kG*kA*kA*dG*dT*dA*d[5mC]*d[5mC]*dT*dA*dG*dA*dG*kG*kA*kG) [compound 799845] . Its measured % Inhibition is 31

Entry under test: 799566 (kG*kA*kG*dT*dA*dA*dA*d[5mC]*dA*dA*dT*dA*d[5mC]*k[5mC]*k[5mC]*kT; antisense) [compound 799566] . Its % Inhibition was 74

GET /value?item= 799671 (antisense kA*kG*kG*dT*dA*dT*dT*dT*dT*dT*dG*dA*dA*kG*kG*k[5mC]) [compound 799671] &field=% Inhibition returns 59

// % Inhibition value for 799650 (antisense k[5mC]*kA*kG*d[5mC]*dA*dG*dA*d[5mC]*dA*dG*dG*d[5mC]*dA*kA*kA*kA) [compound 799650] : 46

Summary for this substance, 799585 (kA*kG*kA*d[5mC]*dA*dA*dG*dA*dT*dG*dT*dT*dA*kT*k[5mC]*kA; antisense) [compound 799585] : % Inhibition is 34

% Inhibition reading for 799843 (antisense kG*kG*kA*dG*dG*dA*dG*dG*d[5mC]*dA*dA*dA*dT*kT*k[5mC]*kA) [compound 799843] : 42

What the record says about 799742 (antisense kA*kT*kA*dT*dT*dT*d[5mC]*d[5mC]*dT*dG*dT*dT*dA*kA*k[5mC]*kT) [compound 799742] : % Inhibition is 23

# % Inhibition of 799765 (antisense kA*kA*kG*d[5mC]*dA*d[5mC]*dG*d[5mC]*dT*dA*dA*dG*dG*kA*kA*kA) [compound 799765] = 23

For 799702 (antisense k[5mC]*kA*kT*d[5mC]*dA*d[5mC]*d[5mC]*dA*d[5mC]*dT*d[5mC]*dT*dA*k[5mC]*kA*kG) [compound 799702] the substance record lists % Inhibition as 43

// recorded % Inhibition for 799667 (antisense kA*k[5mC]*kA*dG*dA*dT*dG*d[5mC]*d[5mC]*dA*dG*d[5mC]*dA*kA*kG*kG) [compound 799667] : 79

* * *

- System: human SMAD7 mRNA
- procedure summary: Dose-dependent inhibition of human SMAD7 mRNA expression in Hep3B cells (Example 3, Study 1 and 2)
- Assay type: cell-based
- condition parameters: 6670.0 nM, electroporation, approximately 16 hours, Study 2
Strand notation (5' to 3'): a small letter for the sugar, then the base; units joined by * are phosphorothioate-linked, units joined directly phosphodiester-linked; [ ] holds rarer units or linkages, { } end groups; capitals alone tell only the bases. k = constrained ethyl (cEt); [5mC] = 5-methylcytosine; d = 2'-deoxy (DNA)
The threshold is inclusive: % inhibition of SMAD7 mRNA expression of exactly 50% counts as 1; values below receive 0.

>  <substance>
790666 (kT*kA*kA*dT*dT*dT*dA*dT*dG*dA*d[5mC]*dA*dA*k[5mC]*kG*k[5mC]; antisense) [compound 790666]

>  <study target>
human SMAD7 mRNA

>  <group label>
1

$$$$
>  <substance>
799743 (antisense k[5mC]*kT*kG*dG*dA*dG*dT*dT*dA*dT*dT*d[5mC]*dT*k[5mC]*kA*kA) [compound 799743]

>  <study target>
human SMAD7 mRNA

>  <group label>
0

$$$$
>  <substance>
799067 (antisense kG*kG*kA*dT*dG*dA*dA*dA*dA*dT*dA*dA*dT*kT*kG*kG) [compound 799067]

>  <study target>
human SMAD7 mRNA

>  <group label>
1

$$$$
>  <substance>
799404 (antisense kG*kG*kA*dA*d[5mC]*dA*dT*dT*dT*dA*d[5mC]*d[5mC]*d[5mC]*k[5mC]*kT*kG) [compound 799404]

>  <study target>
human SMAD7 mRNA

>  <group label>
0

$$$$
>  <substance>
829995 (kT*kG*kG*dA*dG*dG*d[5mC]*dA*dG*dG*dG*d[5mC]*d[5mC]*kG*k[5mC]*kG; antisense) [compound 829995]

>  <study target>
human SMAD7 mRNA

>  <group label>
1

$$$$
>  <substance>
830037 (antisense CTATTGGCTGATCTGG; 3-10-3 cEt gapmer, further chemistry not given here) [compound 830037]

>  <study target>
human SMAD7 mRNA

>  <group label>
1

$$$$
>  <substance>
772578 (kG*kG*kT*dA*dT*d[5mC]*dT*dG*dG*dA*dG*dT*dA*kA*kG*kG; antisense) [compound 772578]

>  <study target>
human SMAD7 mRNA

>  <group label>
1

$$$$
>  <substance>
830157 (antisense kG*kA*kA*d[5mC]*dT*dG*dT*dG*d[5mC]*d[5mC]*dT*d[5mC]*dA*kG*k[5mC]*kA) [compound 830157]

>  <study target>
human SMAD7 mRNA

>  <group label>
1

$$$$

From here, focus on the item given below.
[in] For this substance, is measured % inhibition of SMAD7 mRNA expression 50% or higher? 799496 (antisense kG*kG*kG*dT*dG*dA*dG*dG*dT*dG*dG*d[5mC]*dT*kG*k[5mC]*kG) [compound 799496]
[out] 0
